- ASSAY_SUMMARY: Selectivity index, ratio of CC50 for cytotoxicity against mouse BMMC cells to IC50 for anti-osteoclastogenic activity in mouse BMMC cells
- Format: toxicity, cell-based
- CONDITION_SET: read-out: Ratio CC50/IC50
REPORTED_ENDPOINT: selectivity ratio

Sample C[C@@H]1C=C2C=C[C@@](C)(O)[C@]3(C)C(=O)[C@@](O)(CO)O[C@@H](C1)[C@@H]23 ; selectivity ratio observed: > 4.8

* * *

- ASSAY_SUMMARY: Cytotoxicity against mouse BMMC cells assessed as inhibition of cell growth incubated for 48 hrs by MTT assay
- Assay type: toxicity, cell-based
REPORTED_ENDPOINT: CC50 at 48 h

Sample C[C@@H]1C=C2C=C[C@@](C)(O)[C@]3(C)C(=O)[C@@](O)(CO)O[C@@H](C1)[C@@H]23 ; CC50 at 48 h observed: > 30 µM
